FYI, the data here is from patent US5225566A.

Answer each item with its documented IC50.
Tested on: isolated rat bladder strips
Assay: Inhibition of contractions in isolated rat bladder strips
Design: species or system rat (Sprague-Dawley)
Conditions: 0.5 h, additional 15 mM KCl, 30 min challenge
Answer with the value and then the unit.

> print(dat)
                                   compound  measurename  reportedvalue
1  Cn1c2ccccc2c(=O)n1[C@@H]1c2cc(OC(F)(F)F)ccc2OC(C)(C)[C@H]1O [Example 2]         IC50        9000 nM
2  Cc1ccc2[nH]n([C@@H]3c4cc(OC(F)(F)F)ccc4OC(C)(C)[C@H]3O)c(=O)c2c1 [Example 8]         IC50          11 nM

From here, focus on the item given below.
Asked: Answer with reported IC50 of CC1(C)Oc2ccc(OC(F)(F)F)cc2[C@@H](n2[nH]c3ccccc3c2=O)[C@@H]1O [Example 1]
Given back: 44 nM
